- target.or.system: Tyrosinase (Agaricus bisporus, UniProt O42713)
- Sequence (O42713 whole entry): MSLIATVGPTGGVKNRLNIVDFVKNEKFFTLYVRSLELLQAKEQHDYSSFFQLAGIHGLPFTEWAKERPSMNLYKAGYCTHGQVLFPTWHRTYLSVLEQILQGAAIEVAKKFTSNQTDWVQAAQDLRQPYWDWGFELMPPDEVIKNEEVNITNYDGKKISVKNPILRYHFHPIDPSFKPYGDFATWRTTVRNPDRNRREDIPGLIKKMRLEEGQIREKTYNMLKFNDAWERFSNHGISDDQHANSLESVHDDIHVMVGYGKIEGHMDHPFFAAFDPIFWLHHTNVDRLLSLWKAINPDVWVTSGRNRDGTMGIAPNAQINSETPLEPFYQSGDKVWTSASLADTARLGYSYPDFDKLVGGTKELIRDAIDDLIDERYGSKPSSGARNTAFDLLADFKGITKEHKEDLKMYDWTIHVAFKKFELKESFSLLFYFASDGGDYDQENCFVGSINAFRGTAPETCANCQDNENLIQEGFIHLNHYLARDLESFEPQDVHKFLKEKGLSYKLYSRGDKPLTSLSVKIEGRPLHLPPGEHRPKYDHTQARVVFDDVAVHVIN
pKi: −log10 of the molar value.
result.type: pKi

// known answers, use as guide
>  <chem.smiles>
COc1cc(C=O)ccc1OC(=O)COC(=O)/C=C/c1ccc(Cl)cc1

>  <target.or.system>
Tyrosinase (Agaricus bisporus, UniProt O42713)

>  <pKi>
4.39

$$$$
>  <chem.smiles>
COc1cc(C=O)ccc1OC(=O)CN1CCN(C)CC1

>  <target.or.system>
Tyrosinase (Agaricus bisporus, UniProt O42713)

>  <pKi>
4.22

$$$$

[1] COc1cc(C=O)ccc1OC(=O)COC(=O)c1ccc(O)cc1O
[2] COc1cc(C=O)ccc1OC(=O)COC(=O)/C=C/c1ccc(O)cc1
[in] Which shows the larger pKi value: 1 or 2 ? Response format: the label of the selected entry.
[out] 2

====

These molecules were tested on Tyrosinase (Agaricus bisporus, UniProt O42713); IC50 is the recorded read-out.
result.type: IC50 (µM)

// known answers, use as guide
>  <chem.smiles>
COc1cc(C=O)ccc1OC(=O)COC(=O)c1ccc(O)cc1O

>  <target.or.system>
Tyrosinase (Agaricus bisporus, UniProt O42713)

>  <IC50 [µM]>
42.6

$$$$
>  <chem.smiles>
COc1cc(C=O)ccc1OC(=O)CN1CCN(C)CC1

>  <target.or.system>
Tyrosinase (Agaricus bisporus, UniProt O42713)

>  <IC50 [µM]>
21.6

$$$$
>  <chem.smiles>
COc1cc(C=O)ccc1OC(=O)COC(=O)/C=C/c1ccc(Cl)cc1

>  <target.or.system>
Tyrosinase (Agaricus bisporus, UniProt O42713)

>  <IC50 [µM]>
30.9

$$$$

[1] COc1cc(C=O)ccc1OC(=O)CCl
[2] COc1cc(C=O)ccc1OC(=O)COC(=O)c1ccc(O)cc1
[in] Which shows the larger IC50 value: 1 or 2 ? Response format: the label of the selected entry.
[out] 2

FYI, the data here is from ChEMBL document CHEMBL3600307.
